Test system: NCI-H2122
Experiment: combination cScore with adagrasib (Bliss gap around IC50) (%PoC); higher = stronger additive effect
The molecules listed here are annotated with their combination cScore with adagrasib.

# Molecule, Measurement target, combination cScore with adagrasib
data = [
    ("N#CC[C@H](C1CCCC1)n1cc(-c2ncnc3[nH]ccc23)cn1 [Ruxolitinib] + C=C(F)C(=O)N1CCN(c2nc(OC[C@@H]3CCCN3C)nc3c2CCN(c2cccc4cccc(Cl)c24)C3)C[C@@H]1CC#N [adagrasib]", "NCI-H2122", -2.1),
    ("CCC1=C[C@@H]2CN(C1)Cc1c([nH]c3ccccc13)[C@@](C(=O)OC)(c1cc3c(cc1OC)N(C)[C@H]1[C@@](O)(C(=O)OC)[C@H](OC(C)=O)[C@]4(CC)C=CCN5CC[C@]31[C@@H]54)C2 [Vinorelbine] + C=C(F)C(=O)N1CCN(c2nc(OC[C@@H]3CCCN3C)nc3c2CCN(c2cccc4cccc(Cl)c24)C3)C[C@@H]1CC#N [adagrasib]", "NCI-H2122", -8.58),
    ("CC(C)(C)c1cc(NC(=O)Nc2ccc(-c3cn4c(n3)sc3cc(OCCN5CCOCC5)ccc34)cc2)no1 [Quizartinib] + C=C(F)C(=O)N1CCN(c2nc(OC[C@@H]3CCCN3C)nc3c2CCN(c2cccc4cccc(Cl)c24)C3)C[C@@H]1CC#N [adagrasib]", "NCI-H2122", -3.38),
    ("O=C(c1ccc(F)c(F)c1Nc1ccc(I)cc1F)N1CC(O)([C@@H]2CCCCN2)C1 [Cobimetinib] + C=C(F)C(=O)N1CCN(c2nc(OC[C@@H]3CCCN3C)nc3c2CCN(c2cccc4cccc(Cl)c24)C3)C[C@@H]1CC#N [adagrasib]", "NCI-H2122", 2.78),
]

----------
System: NCI-H2122
Assay: relative IC50 of cell viability (CellTiter-Glo); higher = less potent
Each record's class is read off its relative IC50 of cell viability using these ranges: class 0 (below 20 nM), class 1 (20 nM to below 900 nM), class 2 (900 nM or more)

# Molecule, Answer label
data = [
    ("CO[C@@]12[C@H](COC(N)=O)C3=C(C(=O)C(C)=C(N)C3=O)N1C[C@@H]1N[C@@H]12 [Mitomycin C] (top concentration tested 10000 nM)", "class 1"),
    ("CC(C)c1cc(-c2n[nH]c(=O)n2-c2ccc3c(ccn3C)c2)c(O)cc1O [Ganetespib] (top concentration tested 99.888 nM)", "class 0"),
    ("O=[N+]([O-])c1ccc(NCCNc2ncc(-c3ncc[nH]3)c(-c3ccc(Cl)cc3Cl)n2)nc1 (top concentration tested 10000 nM)", "class 2"),
    ("Cc1nc(-c2cn3c(n2)-c2ccc(-c4cnn(C(C)(C)C(N)=O)c4)cc2OCC3)n(C(C)C)n1 [Taselisib] (top concentration tested 10000 nM)", "class 1"),
    ("Cc1nc(Nc2n[nH]c3c2CN(C(=O)N[C@H](CN(C)C)c2ccccc2)C3(C)C)c2sccc2n1 (top concentration tested 9999.9 nM)", "class 0"),
    ("Cc1ncc(NC(=O)c2cccc(C(F)(F)F)c2)cc1-c1cnc(OC2CCOCC2)c(N2CCOCC2)c1 [RAF-709] (top concentration tested 10000 nM)", "class 2"),
    ("CS(=O)(=O)c1ccc(-c2cnc(N)c(C(=O)Nc3ccccc3)n2)cc1 [VE-821] (top concentration tested 10000 nM)", "class 2"),
    ("CC(=O)Nc1cccc(-n2c(=O)n(C3CC3)c(=O)c3c(Nc4ccc(I)cc4F)n(C)c(=O)c(C)c32)c1 [Trametinib] (top concentration tested 1000 nM)", "class 1"),
    ("CC(C)C[C@H](NC(=O)[C@H](Cc1ccccc1)NC(=O)c1cnccn1)B(O)O [Bortezomib] (top concentration tested 999.9 nM)", "class 0"),
]

----------
Test system: NCI-H2122
Experiment: combination cScore with adagrasib (Bliss gap around IC50) (%PoC); higher = stronger additive effect
Could you label it yes if measured combination cScore with adagrasib is -2 or higher, and no otherwise?

# Compound, Answer label
data = [
    ("Nc1ccn([C@@H]2O[C@H](CO)[C@@H](O)C2(F)F)c(=O)n1 [Gemcitabine] + C=C(F)C(=O)N1CCN(c2nc(OC[C@@H]3CCCN3C)nc3c2CCN(c2cccc4cccc(Cl)c24)C3)C[C@@H]1CC#N", "no"),
    ("COc1cccc2c1C(=O)c1c(O)c3c(c(O)c1C2=O)C[C@@](O)(C(C)=O)C[C@@H]3O[C@H]1C[C@H](N)[C@H](O)[C@H](C)O1 [Daunorubicin] + C=C(F)C(=O)N1CCN(c2nc(OC[C@@H]3CCCN3C)nc3c2CCN(c2cccc4cccc(Cl)c24)C3)C[C@@H]1CC#N", "yes"),
    ("C[C@H](Nc1ncnc2nc[nH]c12)c1cc2cccc(Cl)c2c(=O)n1-c1ccccc1 [Duvelisib] + C=C(F)C(=O)N1CCN(c2nc(OC[C@@H]3CCCN3C)nc3c2CCN(c2cccc4cccc(Cl)c24)C3)C[C@@H]1CC#N", "yes"),
    ("CO[C@H]1C[C@@H]2CC[C@@H](C)[C@@](O)(O2)C(=O)C(=O)N2CCCC[C@H]2C(=O)O[C@H]([C@H](C)C[C@@H]2CC[C@@H](OCCO)[C@H](OC)C2)CC(=O)[C@H](C)/C=C(\\C)[C@@H](O)[C@@H](OC)C(=O)[C@H](C)C[C@H](C)/C=C/C=C/C=C/1C [Everolimus] + C=C(F)C(=O)N1CCN(c2nc(OC[C@@H]3CCCN3C)nc3c2CCN(c2cccc4cccc(Cl)c24)C3)C[C@@H]1CC#N", "no"),
    ("Cc1ncc(NC(=O)c2cccc(C(F)(F)F)c2)cc1-c1cnc(OC2CCOCC2)c(N2CCOCC2)c1 [RAF-709] + C=C(F)C(=O)N1CCN(c2nc(OC[C@@H]3CCCN3C)nc3c2CCN(c2cccc4cccc(Cl)c24)C3)C[C@@H]1CC#N", "yes"),
    ("CN(C)c1ccccc1CN1CCCN(Cc2ccccc2N(C)C)C1c1ccncc1 [GANT61] + C=C(F)C(=O)N1CCN(c2nc(OC[C@@H]3CCCN3C)nc3c2CCN(c2cccc4cccc(Cl)c24)C3)C[C@@H]1CC#N", "yes"),
    ("CN[C@@H](C)C(=O)N[C@H](C(=O)N1CCC[C@H]1c1nc(C(=O)c2ccc(F)cc2)cs1)C1CCCCC1 [LCL161] + C=C(F)C(=O)N1CCN(c2nc(OC[C@@H]3CCCN3C)nc3c2CCN(c2cccc4cccc(Cl)c24)C3)C[C@@H]1CC#N", "yes"),
]

----------
The compounds listed here are annotated with their combination cScore with adagrasib.
System: NCI-H2122
Assay: combination cScore with adagrasib (Bliss gap around IC50) (%PoC); higher = stronger additive effect
Quantity: combination cScore with adagrasib

# Compound, Test result
rows = [
    ("CNC(=O)c1ccc(N2C(=S)N(c3ccc(C#N)c(C(F)(F)F)c3)C(=O)C2(C)C)cc1F [Enzalutamide] + C=C(F)C(=O)N1CCN(c2nc(OC[C@@H]3CCCN3C)nc3c2CCN(c2cccc4cccc(Cl)c24)C3)C[C@@H]1CC#N", 4.58),
    ("CC(C)C[C@@H](C(=O)N[C@H](C(=O)OC1CCCC1)c1ccccc1)[C@H](O)C(=O)NO [Tosedostat] + C=C(F)C(=O)N1CCN(c2nc(OC[C@@H]3CCCN3C)nc3c2CCN(c2cccc4cccc(Cl)c24)C3)C[C@@H]1CC#N", 1.4),
    ("Cc1cn(CCN2CCN(c3ccccc3-c3cc(C#N)cc(C(=O)NCCCN4CCCC4)c3)CC2)c2ccccc12 [LLY-507] + C=C(F)C(=O)N1CCN(c2nc(OC[C@@H]3CCCN3C)nc3c2CCN(c2cccc4cccc(Cl)c24)C3)C[C@@H]1CC#N", 12.6),
]

----------
Test system: NCI-H2122
Assay: combination cScore with sotorasib (Bliss gap around IC50) (%PoC); higher = stronger additive effect

# Compound, combination cScore with sotorasib
data = [
    ("CC(C)N(CCCNC(=O)Nc1ccc(C(C)(C)C)cc1)C[C@H]1O[C@@H](n2ccc3c(N)ncnc32)[C@H](O)[C@@H]1O + C=CC(=O)N1CCN(c2nc(=O)n(-c3c(C)ccnc3C(C)C)c3nc(-c4c(O)cccc4F)c(F)cc23)[C@@H](C)C1 [sotorasib]", 8.67),
    ("CC(C)NC[C@@H](C(=O)N1CCN(c2ncnc3c2[C@H](C)C[C@H]3O)CC1)c1ccc(Cl)cc1 [Ipatasertib] + C=CC(=O)N1CCN(c2nc(=O)n(-c3c(C)ccnc3C(C)C)c3nc(-c4c(O)cccc4F)c(F)cc23)[C@@H](C)C1 [sotorasib]", 12.3),
    ("C=CC(=O)Nc1cc(Nc2nccc(-c3cn(C)c4ccccc34)n2)c(OC)cc1N(C)CCN(C)C [Osimertinib] + C=CC(=O)N1CCN(c2nc(=O)n(-c3c(C)ccnc3C(C)C)c3nc(-c4c(O)cccc4F)c(F)cc23)[C@@H](C)C1 [sotorasib]", 16.7),
    ("CCCS(=O)(=O)Nc1ccc(F)c(C(=O)c2c[nH]c3ncc(Cl)cc23)c1F [PLX4720] + C=CC(=O)N1CCN(c2nc(=O)n(-c3c(C)ccnc3C(C)C)c3nc(-c4c(O)cccc4F)c(F)cc23)[C@@H](C)C1 [sotorasib]", 17.4),
    ("Cc1ccc(NC(=O)c2ccc(CN3CCN(C)CC3)cc2)cc1Nc1nccc(-c2cccnc2)n1 [Imatinib] + C=CC(=O)N1CCN(c2nc(=O)n(-c3c(C)ccnc3C(C)C)c3nc(-c4c(O)cccc4F)c(F)cc23)[C@@H](C)C1 [sotorasib]", -1.79),
    ("Cc1ncc(NC(=O)c2cccc(C(F)(F)F)c2)cc1-c1cnc(OC2CCOCC2)c(N2CCOCC2)c1 [RAF-709] + C=CC(=O)N1CCN(c2nc(=O)n(-c3c(C)ccnc3C(C)C)c3nc(-c4c(O)cccc4F)c(F)cc23)[C@@H](C)C1 [sotorasib]", 3.48),
    ("CC[C@H](Nc1ncnc2[nH]cnc12)c1nc2cccc(F)c2c(=O)n1-c1ccccc1 [Cal-101] + C=CC(=O)N1CCN(c2nc(=O)n(-c3c(C)ccnc3C(C)C)c3nc(-c4c(O)cccc4F)c(F)cc23)[C@@H](C)C1 [sotorasib]", 29.1),
    ("COc1cc(N2CCC(N3CCN(C)CC3)CC2)ccc1Nc1ncc(Cl)c(Nc2ccccc2S(=O)(=O)C(C)C)n1 [NVP-TAE684] + C=CC(=O)N1CCN(c2nc(=O)n(-c3c(C)ccnc3C(C)C)c3nc(-c4c(O)cccc4F)c(F)cc23)[C@@H](C)C1 [sotorasib]", 14.6),
    ("O=C(C1CC1)N1CC[C@@H](Cn2c(-c3ccc(-c4ccc5occc5c4)cc3)nc3cnccc32)C1 + C=CC(=O)N1CCN(c2nc(=O)n(-c3c(C)ccnc3C(C)C)c3nc(-c4c(O)cccc4F)c(F)cc23)[C@@H](C)C1 [sotorasib]", 14.4),
    ("Nc1nc(Cl)nc2c1ncn2[C@@H]1O[C@H](CO)[C@@H](O)[C@@H]1F [Clofarabine] + C=CC(=O)N1CCN(c2nc(=O)n(-c3c(C)ccnc3C(C)C)c3nc(-c4c(O)cccc4F)c(F)cc23)[C@@H](C)C1 [sotorasib]", 1),
    ("Nc1nc(Nc2ccc3c(c2)CC[C@@H](N2CCCC2)CC3)nn1-c1cc2c(nn1)-c1ccccc1CCC2 [Bemcentinib] + C=CC(=O)N1CCN(c2nc(=O)n(-c3c(C)ccnc3C(C)C)c3nc(-c4c(O)cccc4F)c(F)cc23)[C@@H](C)C1 [sotorasib]", -5),
    ("COc1cc(Nc2ncc(F)c(Nc3ccc4c(n3)N(COP(=O)(O)O)C(=O)C(C)(C)O4)n2)cc(OC)c1OC [Fostamatinib] + C=CC(=O)N1CCN(c2nc(=O)n(-c3c(C)ccnc3C(C)C)c3nc(-c4c(O)cccc4F)c(F)cc23)[C@@H](C)C1 [sotorasib]", 23.3),
    ("CC(C)Nc1cc(-c2c[nH]c(C(=O)N[C@H](CO)c3cccc(Cl)c3)c2)c(Cl)cn1 [Ulixertinib] + C=CC(=O)N1CCN(c2nc(=O)n(-c3c(C)ccnc3C(C)C)c3nc(-c4c(O)cccc4F)c(F)cc23)[C@@H](C)C1 [sotorasib]", -4.67),
]
